B1: LMNB1 (parent)
chain: LYKEELEQTYHAKLENARLSSEMN

variants of: B1; test: protein stability index of a GFP-peptide fusion (GPS, HEK-293T) (PSI 1-6); higher = more stable; details: c terminus: a fixed tail appended;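 note: lentivirally expressed fusions sorted by FACS into six bins by GFP to DsRed ratio, PSI derived from sequencing read proportions per bin multiplied by bin number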
REPORTED PROPERTY: protein stability index
One number for each entry.

[
  {
    "RESIDUE CHANGE": "E7T",
    "protein stability index": 3.26
  },
  {
    "RESIDUE CHANGE": "Y10C",
    "protein stability index": 4.16
  },
  {
    "RESIDUE CHANGE": "K3W",
    "protein stability index": 1.61
  },
  {
    "RESIDUE CHANGE": "T9V",
    "protein stability index": 2.61
  },
  {
    "RESIDUE CHANGE": "S21P",
    "protein stability index": 2.37
  },
  {
    "RESIDUE CHANGE": "N24M",
    "protein stability index": 2.6
  },
  {
    "RESIDUE CHANGE": "E4F",
    "protein stability index": 2.37
  },
  {
    "RESIDUE CHANGE": "S20N",
    "protein stability index": 3.07
  }
]

// input: 5 variants below; output: protein stability index for each
1. K13C
2. T9L
3. K13L
4. E5N
5. K3E

Reply text:
2.71
2.16
2.38
2.53
2.47

The values you see were collected from the supplement of paper PMC10567573.
